test system: Escherichia coli TOP10; assay: shrunken log2 fold change of peptide-encoding DNA abundance (4.5 h post-induction vs induction); higher = less antimicrobial activity (less host growth inhibition); conditions: time post-induction: 4.5 h; library: site-saturation at positions 5, 18, 19, 20
# shrunken log2 fold change annotations
Measurement Kind: shrunken log2 fold change

Construct Sequence | Measurement Kind | Result Value
RRIRGRPPRLPRPRPRPHMKPRP | shrunken log2 fold change | 0.103
RRIRIRPPRLPRPRPRPNTLPRP | shrunken log2 fold change | -0.818
RRIRQRPPRLPRPRPRPESHPRP | shrunken log2 fold change | -0.159
RRIRERPPRLPRPRPRPTWKPRP | shrunken log2 fold change | -0.012
RRIRSRPPRLPRPRPRPNAYPRP | shrunken log2 fold change | -0.696
RRIRIRPPRLPRPRPRPNFDPRP | shrunken log2 fold change | 0.235
RRIRNRPPRLPRPRPRPLIEPRP | shrunken log2 fold change | -0.284
RRIRQRPPRLPRPRPRPSQNPRP | shrunken log2 fold change | -0.383
RRIRQRPPRLPRPRPRPCCAPRP | shrunken log2 fold change | 0.0773
RRIRNRPPRLPRPRPRPPIAPRP | shrunken log2 fold change | -0.312
RRIRCRPPRLPRPRPRPCKQPRP | shrunken log2 fold change | -0.0357
RRIRERPPRLPRPRPRPLLKPRP | shrunken log2 fold change | -0.439
RRIRHRPPRLPRPRPRPTSCPRP | shrunken log2 fold change | -0.125
RRIRCRPPRLPRPRPRPYLYPRP | shrunken log2 fold change | -1.01
RRIRCRPPRLPRPRPRPKEYPRP | shrunken log2 fold change | -0.207
RRIRCRPPRLPRPRPRPIYEPRP | shrunken log2 fold change | -0.576
RRIRSRPPRLPRPRPRPCIVPRP | shrunken log2 fold change | -1.05
RRIRSRPPRLPRPRPRPGVNPRP | shrunken log2 fold change | -0.398
RRIRMRPPRLPRPRPRPHFGPRP | shrunken log2 fold change | 0.0712
RRIRARPPRLPRPRPRPFFCPRP | shrunken log2 fold change | 0.2
RRIRFRPPRLPRPRPRPPPSPRP | shrunken log2 fold change | 1.35
RRIRCRPPRLPRPRPRPQQTPRP | shrunken log2 fold change | -0.00158
RRIRHRPPRLPRPRPRPNDEPRP | shrunken log2 fold change | -0.0904
RRIRLRPPRLPRPRPRPTGIPRP | shrunken log2 fold change | -0.182
RRIRQRPPRLPRPRPRPRFGPRP | shrunken log2 fold change | 0.198
RRIRMRPPRLPRPRPRPSSLPRP | shrunken log2 fold change | -0.156
RRIRERPPRLPRPRPRPYFFPRP | shrunken log2 fold change | -0.587
RRIRARPPRLPRPRPRPHMWPRP | shrunken log2 fold change | -0.000358
RRIRFRPPRLPRPRPRPSPQPRP | shrunken log2 fold change | 0.0415
RRIRQRPPRLPRPRPRPCEQPRP | shrunken log2 fold change | -0.105
RRIRQRPPRLPRPRPRPAAIPRP | shrunken log2 fold change | 0.111
RRIRVRPPRLPRPRPRPELWPRP | shrunken log2 fold change | 0.459

----------
tested on: Escherichia coli TOP10; experiment: shrunken log2 fold change of peptide-encoding DNA abundance (4.5 h post-induction vs induction); higher = less antimicrobial activity (less host growth inhibition); conditions: time post-induction: 4.5 h; library: site-saturation at positions 5, 18, 19, 20
# shrunken log2 fold change annotations

Construct Sequence | shrunken log2 fold change
RRIRSRPPRLPRPRPRPPRNPRP | 0.415
RRIRMRPPRLPRPRPRPDNCPRP | 0.00157
RRIRGRPPRLPRPRPRPNNDPRP | 0.247
RRIRDRPPRLPRPRPRPKMVPRP | 0.223
RRIRNRPPRLPRPRPRPNVLPRP | -0.178
RRIRPRPPRLPRPRPRPDMWPRP | -0.103
RRIRQRPPRLPRPRPRPVQHPRP | -0.0755
RRIRCRPPRLPRPRPRPCHFPRP | -0.273
RRIRARPPRLPRPRPRPWNTPRP | -0.427
RRIRRRPPRLPRPRPRPNHWPRP | 0.0169
RRIRKRPPRLPRPRPRPGGLPRP | 0.0184
RRIRDRPPRLPRPRPRPYCEPRP | -0.42
RRIRHRPPRLPRPRPRPFEHPRP | -0.0952
RRIRVRPPRLPRPRPRPDYEPRP | 0.0678
RRIRHRPPRLPRPRPRPFRQPRP | 0.0583
RRIRSRPPRLPRPRPRPEMCPRP | -0.104
RRIRGRPPRLPRPRPRPLYHPRP | 3.13
RRIRKRPPRLPRPRPRPCSMPRP | -0.00483
RRIRYRPPRLPRPRPRPMTCPRP | -0.122
RRIRLRPPRLPRPRPRPYHLPRP | -0.213
RRIRIRPPRLPRPRPRPTHCPRP | -0.00414
RRIRHRPPRLPRPRPRPKMYPRP | -0.289
RRIRIRPPRLPRPRPRPNDPPRP | -0.19
RRIRFRPPRLPRPRPRPNFAPRP | -0.125
RRIRPRPPRLPRPRPRPCDLPRP | -0.428
RRIRGRPPRLPRPRPRPQETPRP | -0.0108
RRIRMRPPRLPRPRPRPWDQPRP | 0.0532
RRIRMRPPRLPRPRPRPIAEPRP | 3.46
RRIRQRPPRLPRPRPRPLGPPRP | 0.23
RRIRCRPPRLPRPRPRPRCYPRP | -0.532
RRIRVRPPRLPRPRPRPHGDPRP | 0.00703
RRIRERPPRLPRPRPRPMMFPRP | -0.0555

----------
# shrunken log2 fold change annotations
test system: Escherichia coli TOP10; assay: shrunken log2 fold change of peptide-encoding DNA abundance (4.5 h post-induction vs induction); higher = less antimicrobial activity (less host growth inhibition); settings: time post-induction: 4.5 h; library: site-saturation at positions 5, 18, 19, 20
Measurement Kind: shrunken log2 fold change

Construct Sequence | Result Value
RRIRSRPPRLPRPRPRPMEMPRP | -0.0909
RRIRFRPPRLPRPRPRPDCRPRP | -0.309
RRIRFRPPRLPRPRPRPQYIPRP | -0.0295
RRIRGRPPRLPRPRPRPWDSPRP | -0.479
RRIRWRPPRLPRPRPRPEYFPRP | -0.0445
RRIRIRPPRLPRPRPRPNMVPRP | -0.383
RRIRMRPPRLPRPRPRPRPCPRP | 0.586
RRIRNRPPRLPRPRPRPFSGPRP | -0.277
RRIRKRPPRLPRPRPRPVNWPRP | 0.192
RRIRPRPPRLPRPRPRPTFPPRP | 0.025
RRIRPRPPRLPRPRPRPMLPPRP | 0.0406
RRIRSRPPRLPRPRPRPKAIPRP | 0.119
RRIRKRPPRLPRPRPRPTCVPRP | 0.241
RRIRHRPPRLPRPRPRPTEQPRP | -0.185
RRIRPRPPRLPRPRPRPWLDPRP | 0.164
RRIRLRPPRLPRPRPRPCNWPRP | 0.0532
RRIRCRPPRLPRPRPRPCNGPRP | -0.00386
RRIRVRPPRLPRPRPRPGLEPRP | 0.0118
RRIRKRPPRLPRPRPRPSPTPRP | -0.00658
RRIRRRPPRLPRPRPRPAPWPRP | 0.626
RRIRQRPPRLPRPRPRPMQPPRP | 0.0113
RRIRGRPPRLPRPRPRPACPPRP | 0.46
RRIRLRPPRLPRPRPRPWACPRP | -0.0699
RRIRVRPPRLPRPRPRPCLHPRP | -0.947
RRIRSRPPRLPRPRPRPFWGPRP | 0.176
RRIRYRPPRLPRPRPRPPGGPRP | 0.259
RRIRTRPPRLPRPRPRPDTMPRP | 0.0881
RRIRGRPPRLPRPRPRPHRTPRP | 0.271
RRIRGRPPRLPRPRPRPIYIPRP | -0.0529
RRIRPRPPRLPRPRPRPLNNPRP | -0.541
RRIRWRPPRLPRPRPRPGAMPRP | 0.524
RRIRTRPPRLPRPRPRPRRTPRP | 0.338

----------
# shrunken log2 fold change annotations
system: Escherichia coli TOP10; test: shrunken log2 fold change of peptide-encoding DNA abundance (4.5 h post-induction vs induction); higher = less antimicrobial activity (less host growth inhibition); details: time post-induction: 4.5 h; library: site-saturation at positions 5, 18, 19, 20;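 also: peptides expressed intracellularly from a pBAD plasmid library in pooled LB shake-flask culture, induced with 0.3% L-arabinose, DNA abundance read by NGS, three biological replicates, DESeq2 with apeglm shrinkage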

Construct Sequence | shrunken log2 fold change
RRIRKRPPRLPRPRPRPHESPRP | 0.23
RRIRYRPPRLPRPRPRPARMPRP | -0.0508
RRIRSRPPRLPRPRPRPTKCPRP | -0.258
RRIRLRPPRLPRPRPRPAIQPRP | 0.987
RRIRHRPPRLPRPRPRPCTRPRP | 0.0237
RRIRYRPPRLPRPRPRPGINPRP | -0.227
RRIRLRPPRLPRPRPRPNHIPRP | -0.671
RRIRLRPPRLPRPRPRPKNGPRP | -0.203
RRIRVRPPRLPRPRPRPHKEPRP | 0.0216
RRIRHRPPRLPRPRPRPHLDPRP | -0.214
RRIRYRPPRLPRPRPRPLAAPRP | 0.153
RRIRARPPRLPRPRPRPIDPPRP | 0.00727
RRIRMRPPRLPRPRPRPHIHPRP | -0.111
RRIRERPPRLPRPRPRPLISPRP | -0.0142
RRIRIRPPRLPRPRPRPKCTPRP | -0.233

Origin of measurements: the supplement of paper PMC9112550
